Assay: Absorption spectra (Soret and Q bands)
Format: physicochemical
Details: solvent DMF; TPhTNP compounds, average position of split Soret band
Record form. Attribute: Soret band. Fill in for each entry.
Give just the number in nm; leave the unit off.

Consider the compound shown here: c1ccc(C2=C3N=C(C(c4ccccc4)=c4c5cc6ccccc6cc5c5[n]4[Pt][n]4c2c2cc6ccccc6cc2c4C(c2ccccc2)=C2N=C(C=5c4ccccc4)c4cc5ccccc5cc42)c2cc4ccccc4cc23)cc1 [PtTPhTNP] What is its recorded Soret band?
425

Quick one: Soret band for c1ccc(C2=C3N=C(C(c4ccccc4)=c4c5cc6ccccc6cc5c5[n]4[Pd][n]4c2c2cc6ccccc6cc2c4C(c2ccccc2)=C2N=C(C=5c4ccccc4)c4cc5ccccc5cc42)c2cc4ccccc4cc23)cc1 [PdTPhTNP] ?
415

Fill blank: measured Soret band of the compound [OH][Lu]1[n]2c3c4cc5ccccc5cc4c2C(c2ccccc2)=C2N=C(C(c4ccccc4)=c4c5cc6ccccc6cc5c([n]41)=C(c1ccccc1)C1=NC(=C3c3ccccc3)c3cc4ccccc4cc31)c1cc3ccccc3cc12 [Lu(OH)TPhTNP] is ____.
440

Recorded Soret band for [OH][La]1[n]2c3c4cc5ccccc5cc4c2C(c2ccccc2)=C2N=C(C(c4ccccc4)=c4c5cc6ccccc6cc5c([n]41)=C(c1ccccc1)C1=NC(=C3c3ccccc3)c3cc4ccccc4cc31)c1cc3ccccc3cc12 [La(OH)TPhTNP] , please?
440
